- testSystem: T1, SARS-CoV-2 Receptor Binding Domain (RBD) protein (SARS-CoV-2, UniProt P0DTC2 319-541)
- T1 construct: also called Sars-Cov-2 (COV2)
- protocolNotes: SPR (Carterra LSA); scFv captured by anti-V5, RBD as analyte
testReadout: koff (s⁻¹)
# unit: s⁻¹ | format: bare number

binder	measValue
COVID19_P14_G01 (scFv, V domains shown) VH: QVQLVQSGAEVKKPGSSVKVSCKASGYNFINYYLHWVRQAPGQGLEWMGGITPIFGIANYAQKFQGRVTITADESTSTAYMELSSLRSEDTAVYYCARETVMGGMDVWGQGTLVTVSS VL: SSYVLTQPPSVSVAPGKTARITCGGNKIGSKSVHWYQQKPGQAPVLVIYYDSDRPSGIPERFSGSNSGNTATLTISRVEAGDEADYYCQVWDSGSDYVFGGGTKLTVLA	0.000842
COVID19_P14_B07 (scFv, V domains shown) VH: QVQLVQSGAEVKKPGSSVKVSCKASGYTFTSYGISWVRQAPGQGLEWMGWINPNSGGTNYAQKFQGRVTITADESTSTAYMELSSLRSEDTAVYYCAVETVMGGFTVWGQGTLVTVSS VL: SSYVLTQPPSVSVAPGKTARITCGGNNIGSKSVHWYQQKPGQAPVLVIYYDSDRPSGIPERFSGSNSGNTATLTISRVEAGDEADYYCQVWDSSSDYVFGGGTKLTVLA	0.0131

Q: Return reported koff; argument: COVID19_P14_C01 (scFv, V domains shown) VH: QVQLVQSGAEVKKPGSSVKVSCKASGYTFSDFYLHWVRQAPGQGLEWMGGITPIFGTANYAQKFQGRVTITADESTSTAYMELSSLRSEDTAVYYCAMETVMGGMDVWGQGTLVTVSS VL: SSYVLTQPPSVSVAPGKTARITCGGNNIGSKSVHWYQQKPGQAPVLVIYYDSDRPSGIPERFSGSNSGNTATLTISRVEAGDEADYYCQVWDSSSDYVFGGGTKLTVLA
A: 0.00191

Q: // repeat for COVID19_P14_D11 (scFv, V domains shown) VH: QVQLVQSGAEVKKPGSSVKVSCKASGYTFNRFAMTWVRQAPGQGLEWMGTINPSGGSTIYTQRFQGRVTITADESTSTAYMELSSLRSEDTAVYYCGHDTVMGGMGEWGQGTLVTVSS VL: SSYVLTQPPSVSVAPGKTARITCGGNNIGSKSVHWYQQKPGQAPVLVIYYDSDRPSGIPERFSGSNSGNTATLTISRVEAGDEADYYCQSTDSSSDYVFGGGTKLTVLA and report
A: 0.00987
